molecular target: UniProt O60674; test: biochemical; conditions: 0.2 μM ATP; read-out: JAK2 Potency
Let's look at some compounds and their measured IC50.

compound	assay result
CN(C)c1ccc(-c2nc3c(N[C@H]4[C@@H](C(N)=O)[C@@H]5C=C[C@H]4C5)ccnc3[nH]2)cc1	1000 to 10000 nM

Read the next record carefully.
(Q) Check the records and state IC50 for `COc1cc(N2CCC(N3CCN(C)CC3)CC2)ccc1-c1nc2c(N[C@H]3[C@@H](C(N)=O)[C@@H]4C=C[C@H]3C4)c(Cl)cnc2[nH]1`
(A) < 100 nM

---

molecular target: baculovirus-expressed ALK (Homo sapiens, UniProt Q9UM73); assay: ALK kinase inhibition, TRF/ELISA; assay type: biochemical; conditions: read-out: ALK Potency
Sequence (Q9UM73 19-1620): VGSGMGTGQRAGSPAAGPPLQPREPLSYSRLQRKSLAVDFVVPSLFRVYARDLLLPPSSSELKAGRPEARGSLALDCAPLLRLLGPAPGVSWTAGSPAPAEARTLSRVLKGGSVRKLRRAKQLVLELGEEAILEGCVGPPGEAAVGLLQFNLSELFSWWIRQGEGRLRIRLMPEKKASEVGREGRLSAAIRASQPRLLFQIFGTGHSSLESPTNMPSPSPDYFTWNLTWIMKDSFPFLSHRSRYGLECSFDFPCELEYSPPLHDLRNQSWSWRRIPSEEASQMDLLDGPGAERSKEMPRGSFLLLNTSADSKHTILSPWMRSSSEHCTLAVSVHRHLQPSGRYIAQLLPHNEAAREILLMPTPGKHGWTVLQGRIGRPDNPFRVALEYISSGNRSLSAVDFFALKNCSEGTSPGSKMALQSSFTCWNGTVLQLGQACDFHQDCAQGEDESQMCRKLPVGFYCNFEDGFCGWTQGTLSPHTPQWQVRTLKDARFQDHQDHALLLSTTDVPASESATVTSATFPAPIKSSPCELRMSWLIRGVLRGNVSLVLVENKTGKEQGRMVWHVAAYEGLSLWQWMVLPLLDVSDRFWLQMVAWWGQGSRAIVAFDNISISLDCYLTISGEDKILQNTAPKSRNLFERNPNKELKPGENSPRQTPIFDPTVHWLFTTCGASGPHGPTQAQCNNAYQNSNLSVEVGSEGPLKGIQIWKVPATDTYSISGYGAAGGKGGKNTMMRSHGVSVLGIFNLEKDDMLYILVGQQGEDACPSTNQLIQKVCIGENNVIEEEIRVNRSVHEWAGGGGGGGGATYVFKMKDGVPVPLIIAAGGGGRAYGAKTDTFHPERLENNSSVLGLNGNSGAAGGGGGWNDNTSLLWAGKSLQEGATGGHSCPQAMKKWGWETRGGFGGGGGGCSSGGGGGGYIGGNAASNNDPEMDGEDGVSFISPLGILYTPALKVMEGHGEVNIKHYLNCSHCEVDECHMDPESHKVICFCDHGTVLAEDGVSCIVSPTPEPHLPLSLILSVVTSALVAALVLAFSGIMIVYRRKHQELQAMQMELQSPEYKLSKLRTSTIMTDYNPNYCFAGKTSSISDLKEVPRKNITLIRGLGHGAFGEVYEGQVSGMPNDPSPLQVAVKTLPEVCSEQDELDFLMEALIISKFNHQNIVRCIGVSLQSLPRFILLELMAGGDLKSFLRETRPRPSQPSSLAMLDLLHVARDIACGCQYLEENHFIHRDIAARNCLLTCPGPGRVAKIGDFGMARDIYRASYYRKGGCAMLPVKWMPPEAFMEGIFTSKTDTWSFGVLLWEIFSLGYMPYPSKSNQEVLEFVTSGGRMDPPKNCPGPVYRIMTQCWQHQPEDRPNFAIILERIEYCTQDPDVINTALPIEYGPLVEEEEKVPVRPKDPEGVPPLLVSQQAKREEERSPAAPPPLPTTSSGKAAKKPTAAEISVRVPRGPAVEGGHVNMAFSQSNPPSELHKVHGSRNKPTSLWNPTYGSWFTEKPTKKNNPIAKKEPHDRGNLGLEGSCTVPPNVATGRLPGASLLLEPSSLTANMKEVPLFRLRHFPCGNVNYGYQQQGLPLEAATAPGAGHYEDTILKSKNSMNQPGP
Where a name gives a salt, the structure may show the parent alone.
IC50 values, listed per item

compound	assay result
NC(=O)CN1CCC(n2cc(-c3nc4c(N[C@H]5[C@@H](C(N)=O)[C@@H]6C=C[C@H]5C6)c(Cl)cnc4[nH]3)cn2)CC1 [Compound LXVI, trifluoroacetic acid salt]	100 to 1000 nM
COc1cc(CN2CCOCC2)ccc1-c1nc2c(N[C@H]3[C@@H](CO)[C@@H]4C=C[C@H]3C4)c(Cl)cnc2[nH]1	< 100 nM
NC(=O)[C@@H]1[C@H](Nc2c(Cl)cnc3[nH]c(-c4cccc(C(=O)NCC(=O)O)c4)nc23)[C@H]2C=C[C@@H]1C2	1000 to 10000 nM

(Q) Give the reported IC50 for this compound. `Cn1cc(-c2nc3c(N[C@H]4[C@@H](C(N)=O)[C@@H]5C=C[C@H]4C5)ccnc3[nH]2)cn1`
(A) > 10000 nM

---

target: baculovirus-expressed JAK2 kinase (Homo sapiens, UniProt O60674); experiment: biochemical; conditions: 0.2 μM ATP; read-out: JAK2 Potency
Sequence (O60674 whole entry): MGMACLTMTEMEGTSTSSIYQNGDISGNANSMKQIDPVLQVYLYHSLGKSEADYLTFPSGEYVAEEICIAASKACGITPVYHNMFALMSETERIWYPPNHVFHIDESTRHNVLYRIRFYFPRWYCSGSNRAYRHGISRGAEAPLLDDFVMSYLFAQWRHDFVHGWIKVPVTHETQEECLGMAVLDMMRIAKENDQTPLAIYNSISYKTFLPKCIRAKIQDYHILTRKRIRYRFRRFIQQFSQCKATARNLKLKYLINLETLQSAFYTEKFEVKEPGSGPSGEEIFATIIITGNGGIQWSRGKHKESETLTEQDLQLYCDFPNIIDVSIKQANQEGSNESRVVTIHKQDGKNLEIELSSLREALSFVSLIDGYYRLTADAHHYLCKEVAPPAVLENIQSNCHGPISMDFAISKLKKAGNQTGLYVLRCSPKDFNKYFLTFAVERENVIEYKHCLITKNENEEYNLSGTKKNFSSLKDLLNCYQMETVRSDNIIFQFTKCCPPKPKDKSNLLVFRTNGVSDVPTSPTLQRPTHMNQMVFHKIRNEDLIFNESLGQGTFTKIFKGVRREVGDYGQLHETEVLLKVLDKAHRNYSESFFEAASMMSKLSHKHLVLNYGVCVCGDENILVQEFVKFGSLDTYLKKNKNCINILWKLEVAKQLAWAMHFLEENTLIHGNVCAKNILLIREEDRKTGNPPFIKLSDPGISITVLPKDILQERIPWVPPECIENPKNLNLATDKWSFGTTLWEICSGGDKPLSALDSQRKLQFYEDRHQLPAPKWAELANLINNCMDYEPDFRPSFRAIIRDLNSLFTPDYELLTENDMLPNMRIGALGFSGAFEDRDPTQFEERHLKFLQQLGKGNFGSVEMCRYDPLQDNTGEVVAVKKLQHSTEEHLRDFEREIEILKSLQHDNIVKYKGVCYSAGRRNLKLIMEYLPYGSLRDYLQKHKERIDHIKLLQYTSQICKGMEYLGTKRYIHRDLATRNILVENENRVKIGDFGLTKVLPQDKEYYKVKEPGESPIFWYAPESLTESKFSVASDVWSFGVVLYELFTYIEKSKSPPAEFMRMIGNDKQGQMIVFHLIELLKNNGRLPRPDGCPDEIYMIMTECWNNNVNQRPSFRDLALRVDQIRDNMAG
pIC50: −log10 of the molar value.
The entries below come with measured pIC50 values attached.

In [3]: df
Out[3]:
                               given_smiles  assay_result
0  NC(=O)[C@@H]1[C@H](Nc2c(Cl)cnc3[nH]c(-c4ccc(O)cc4)nc23)[C@H]2C=C[C@@H]1C2        > 7.00
1  NC(=O)[C@@H]1[C@H](Nc2c(Br)cnc3[nH]c(-c4ccc(N5CCOCC5)cc4)nc23)[C@H]2C=C[C@@H]1C2        > 7.00
2  NC(=O)[C@H]1[C@@H](Nc2c(Cl)cnc3[nH]c(-c4cccc(N5CCOCC5)c4)nc23)[C@@H]2C=C[C@H]1C2  6.00 to 7.00
3  Cc1nc(C2CCNCC2)sc1-c1nc2c(N[C@H]3[C@@H](C(N)=O)[C@@H]4C=C[C@H]3C4)c(Cl)cnc2[nH]1        > 7.00
4  Cc1ncc(-c2nc3c(N[C@H]4[C@@H](C(N)=O)[C@@H]5C=C[C@H]4C5)c(Cl)cnc3[nH]2)s1        > 7.00

(Q) Report its pIC50 with baculovirus-expressed JAK2 kinase (Homo sapiens, UniProt O60674) as the test system: `NC(=O)[C@@H]1[C@H](Nc2c(Cl)cnc3[nH]c(-c4ccc(C(=O)N5CCNCC5)cc4)nc23)[C@H]2C=C[C@@H]1C2`
(A) > 7.00

---

target: baculovirus-expressed ALK (Homo sapiens, UniProt Q9UM73); experiment: ALK kinase inhibition, TRF/ELISA; type: biochemical; conditions: read-out: ALK Potency
pIC50: −log10 of the molar value.
We begin with a simple list: items and their reported pIC50.

Example entries begin here.
>>> df
                                   compound  value_type  assay_result
0  CN(C)c1cccc(-c2nc3c(N[C@@H]4[C@H](C(N)=O)[C@H]5C=C[C@@H]4C5)c(Cl)cnc3[nH]2)c1 [Compound XXIV]       pIC50        < 5.00
1  N#Cc1cccc(-c2nc3c(N[C@H]4[C@@H](C(N)=O)[C@@H]5C=C[C@H]4C5)c(Cl)cnc3[nH]2)c1 [Compound CXLIV]       pIC50  6.00 to 7.00
2  COc1cc(N2CCC(N3CCOCC3)CC2)ccc1-c1nc2c(N[C@H]3[C@@H](C(N)=O)[C@@H]4C=C[C@H]3C4)c(Br)cnc2[nH]1 [Compound XCVII]       pIC50        > 7.00
3  COc1ccncc1-c1nc2c(N[C@H]3[C@@H](C(N)=O)[C@@H]4C=C[C@H]3C4)c(Cl)cnc2[nH]1 [Compound XXXV]       pIC50  6.00 to 7.00
4  NC(=O)[C@@H]1[C@H](Nc2c(Cl)cnc3[nH]c(-c4ccc(O)cc4)nc23)[C@H]2C=C[C@@H]1C2 [Compound CCXXXIV]       pIC50  6.00 to 7.00

(Q) Supply recorded pIC50 for COc1cc(CN2CCOCC2)ccc1Nc1nc2c(N[C@H]3[C@@H](C(N)=O)[C@@H]4C=C[C@H]3C4)c(Cl)cnc2[nH]1 [Compound LXIX] here.
(A) > 7.00

---

biological target: UniProt Q9UM73; assay: ALK kinase inhibition, TRF/ELISA; assay type: biochemical; settings: read-out: ALK Potency
pIC50: −log10 of the molar value.
// reported pIC50 per item

>>> df
                               given_smiles  value_type  assay_result
0  COc1ncccc1-c1nc2c(N[C@H]3[C@@H](C(N)=O)[C@@H]4C=C[C@H]3C4)c(Br)cnc2[nH]1       pIC50        > 7.00

(Q) Provide one value: measured pIC50 of `CN(C)C(=O)[C@@H]1[C@H](Nc2c(Cl)cnc3[nH]c(-c4sc(N5CCCC5)nc4Cl)nc23)[C@H]2C=C[C@@H]1C2`
(A) > 7.00

(Q) Using known records, supply pIC50 for `COc1ccc(-c2nc3c(N[C@H]4[C@@H](C(N)=O)[C@@H]5C=C[C@H]4C5)c(Cl)cnc3[nH]2)c(C2CCN(C[C@@H](C)O)CC2)c1`
(A) 5.00 to 6.00

(Q) Give me measured pIC50, please, for this compound: `NC(=O)[C@@H]1[C@H](Nc2c(Br)cnc3[nH]c(-c4sc(N5CC[C@@H](O)C5)nc4Cl)nc23)[C@H]2C=C[C@@H]1C2`
(A) > 7.00

(Q) Quickly give me recorded pIC50 for `CC(=O)N1CCC(n2cc(-c3nc4c(N[C@H]5[C@@H](C(N)=O)[C@@H]6C=C[C@H]5C6)c(Cl)cnc4[nH]3)cn2)CC1`
(A) 6.00 to 7.00

(Q) Give pIC50 for `C[C@@H](O)CN1CCC(n2cc(-c3nc4c(N[C@H]5[C@@H](C(N)=O)[C@@H]6C=C[C@H]5C6)c(Cl)cnc4[nH]3)cn2)CC1`
(A) > 7.00

---

The molecules listed here are annotated with their IC50.
Biological target: baculovirus-expressed ALK (Homo sapiens)
Experiment: ALK kinase inhibition, TRF/ELISA
Assay type: biochemical
Conditions: read-out: ALK Potency
Experimental: Briefly, each 96-well plate was coated with 100 μL/well of 10 μg/mL substrate (GST-PLC-γ) in Tris-buffered saline (TBS). […] The reaction was initiated by adding enzyme (30 ng/mL ALK) and was allowed to proceed at 37° C. for 15 minutes. […] IC50 values were calculated by plotting percent inhibition versus log10 of the concentration of compound and fitting to the nonlinear regression sigmoidal dose-response (variable slope) equation in XLFit (IDBS, Guilford, UK).

Below: 5 molecules and their reported IC50.
>>> print(df.to_string())
                               given_smiles  value_type  assay_result
0  CCNC(=O)N1CCC(n2cc(-c3nc4c(N[C@H]5[C@@H](C(N)=O)[C@@H]6C=C[C@H]5C6)c(Cl)cnc4[nH]3)cn2)CC1        IC50      < 100 nM
1  COc1cc(N2CCN(C)CC2)ccc1-c1nc2c(N[C@H]3[C@@H](C(N)=O)[C@@H]4C=C[C@H]3C4)c(Br)cnc2[nH]1        IC50      < 100 nM
2  NC(=O)[C@@H]1[C@H](Nc2c(Cl)cnc3[nH]c(-c4sc(N5CCCC5)nc4Cl)nc23)[C@H]2C=C[C@@H]1C2        IC50      < 100 nM
3  COc1cc(N(C)C)ccc1-c1nc2c(N[C@H]3[C@@H](C(N)=O)[C@@H]4C=C[C@H]3C4)c(Cl)cnc2[nH]1        IC50      < 100 nM
4  NC(=O)[C@@H]1[C@H](Nc2c(Br)cnc3[nH]c(-c4sc(N5CCCC5)nc4Cl)nc23)[C@H]2C=C[C@@H]1C2        IC50      < 100 nM

(Q) Identify the reported IC50 for the following entry. `NC(=O)[C@@H]1[C@H](Nc2c(Br)cnc3[nH]c(-c4ccnc(N5CCOCC5)c4)nc23)[C@H]2C=C[C@@H]1C2`
(A) 100 to 1000 nM
